ASSAY SYSTEM: B-RAF G466V (Homo sapiens, UniProt P15056, G466V)
Construct: expressed in transfected cells; host or cells: T-Rex 293 cells (Invitrogen #R71007)
Sequence (P15056 whole entry G466V): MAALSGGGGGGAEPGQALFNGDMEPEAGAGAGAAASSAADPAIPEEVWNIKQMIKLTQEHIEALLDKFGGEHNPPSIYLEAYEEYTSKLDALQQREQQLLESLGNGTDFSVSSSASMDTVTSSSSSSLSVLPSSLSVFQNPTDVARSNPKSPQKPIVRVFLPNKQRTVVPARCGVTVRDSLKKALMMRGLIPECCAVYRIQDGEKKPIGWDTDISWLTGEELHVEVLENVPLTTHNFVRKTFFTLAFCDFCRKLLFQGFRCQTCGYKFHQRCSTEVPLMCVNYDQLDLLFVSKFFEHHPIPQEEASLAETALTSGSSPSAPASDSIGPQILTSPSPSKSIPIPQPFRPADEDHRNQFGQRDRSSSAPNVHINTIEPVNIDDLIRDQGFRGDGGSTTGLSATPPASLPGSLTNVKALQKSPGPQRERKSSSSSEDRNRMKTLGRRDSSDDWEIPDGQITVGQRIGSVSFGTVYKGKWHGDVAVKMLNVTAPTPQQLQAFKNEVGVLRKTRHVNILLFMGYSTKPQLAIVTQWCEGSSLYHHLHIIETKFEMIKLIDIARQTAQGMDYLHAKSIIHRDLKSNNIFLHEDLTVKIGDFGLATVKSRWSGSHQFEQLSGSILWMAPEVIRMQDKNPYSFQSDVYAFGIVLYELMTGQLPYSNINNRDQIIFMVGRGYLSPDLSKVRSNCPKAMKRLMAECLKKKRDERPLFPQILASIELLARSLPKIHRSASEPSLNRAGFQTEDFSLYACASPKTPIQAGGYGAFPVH
PROTOCOL DETAILS: Target protein degradation, assay D: T-Rex 293 cells, HA-BRAF_G466V, 384 well format
Format: cell-based
TEST PARAMETERS: Assay D, T-Rex 293 HA-BRAF_G466V cells, 24 hours, Examples 83-269
Hi there, I'd appreciate the recorded DC50 for every entry that follows.

### Prompt Would you mind telling me what DC50 value was observed for "N#Cc1c(NS(=O)(=O)N2CC[C@@H](F)C2)ccc(F)c1Oc1ccc2ncn(-c3cccc(N4CCN(CC5CN(c6ccc7c(c6)CN([C@H]6CCC(=O)NC6=O)C7=O)C5)CC4)c3)c(=O)c2c1" ?
### Response 1 to 10 nM

### Prompt Endpoint output: DC50 of N#Cc1c(NS(=O)(=O)N2CC[C@@H](F)C2)ccc(F)c1Oc1ccc2ncn(-c3ccc(N4CCN(CCCOc5cccc6c5C(=O)N(C5CCC(=O)NC5=O)C6=O)CC4)nc3)c(=O)c2c1 (stereo partly drawn) . Value?
### Response ≤ 1 nM

In the following, a different compound is considered.
### Prompt # query: DC50 of entry N#Cc1c(NS(=O)(=O)N2CC[C@@H](F)C2)ccc(F)c1Oc1ccc2ncn(-c3ccc(N4CCC(CN5CC6(C5)CN(c5ccc7c(c5)CN(C5CCC(=O)NC5=O)C7=O)C6)CC4)cc3)c(=O)c2c1 (stereo partly drawn)
### Response 1 to 10 nM

###

ASSAY SYSTEM: B-RAF G466V (Homo sapiens, UniProt P15056, G466V)
Construct: expressed in transfected cells; host or cells: T-Rex 293 cells (Invitrogen #R71007)
PROTOCOL DETAILS: Target protein degradation, assay D: T-Rex 293 cells, HA-BRAF_G466V, 384 well format
Type: cell-based
TEST PARAMETERS: T-REx-293, Assay D, T-Rex 293 HA-BRAF_G466V cells, 24 hours, Examples 83-269
EXPERIMENTAL READOUT: Dmax

Please review the following examples before continuing.
### Prompt What value of Dmax has been recorded for this entry: "N#Cc1c(NS(=O)(=O)N2CC[C@@H](F)C2)ccc(F)c1Oc1ccc2ncn(-c3ccc(N4CCC5(CC4)CC(OC4CCN(c6ccc7c(c6)CN([C@H]6CCC(=O)NC6=O)C7=O)CC4)C5)cc3)c(=O)c2c1"
### Response 35 to 70%

### Prompt # input compound: N#Cc1c(NS(=O)(=O)N2CC[C@@H](F)C2)ccc(F)c1Oc1ccc2ncn(-c3ccc(N4CCC(CN5CC6(CC(c7ccc8c(c7)CN(C7CCC(=O)NC7=O)C8=O)C6)C5)CC4)cc3)c(=O)c2c1 (some centres unmarked) ; wanted: its Dmax
### Response 35 to 70%

### Prompt Can you share its Dmax? I mean this compound: "N#Cc1c(NS(=O)(=O)N2CC[C@@H](F)C2)ccc(F)c1Oc1ccc2ncn(-c3ccc(N4CCC(CN5CC(c6ccc7c(c6)CN([C@@H]6CCC(=O)NC6=O)C7=O)C5)CC4)cc3)c(=O)c2c1"
### Response ≤ 35%

### Prompt Consider the compound shown here: Cn1c(=O)n(C2CCC(=O)NC2=O)c2cccc(N3CC(CN4CCN(c5ccc(-n6cnc7ccc(Oc8c(F)ccc(NS(=O)(=O)N9CC[C@@H](F)C9)c8C#N)cc7c6=O)cc5)CC4)C3)c21 (some centres unmarked) What is its recorded Dmax?
### Response 35 to 70%

New cases:
### Prompt Entry N#Cc1c(NS(=O)(=O)N2CC[C@@H](F)C2)ccc(F)c1Oc1ccc2ncn(-c3cnc(C4(N5CCN(CC6CN(c7ccc8c(c7)CN(C7CCC(=O)NC7=O)C8=O)C6)CC5)CC4)nc3)c(=O)c2c1 (some centres unmarked) : reported Dmax = ?
### Response 35 to 70%

###

Task for the reader: assign each of the following compounds its reported DC50.
ASSAY SYSTEM: B-RAF G466V (Homo sapiens, UniProt P15056, G466V)
Construct: expressed in transfected cells; host or cells: T-Rex 293 cells (Invitrogen #R71007)
PROTOCOL DETAILS: Target protein degradation, assay D: T-Rex 293 cells, HA-BRAF_G466V, 384 well format
Format: cell-based
TEST PARAMETERS: Assay D, T-Rex 293 HA-BRAF_G466V cells, 24 hours, Examples 83-269

// below: answered compounds
### Prompt // query DC50 value for entry CCc1c(NS(=O)(=O)N2CC[C@@H](F)C2)ccc(F)c1Oc1ccc2ncn(-c3ccc(N4CCN(CC5CCN(c6ccc7c(c6)CN(C6CCC(=O)NC6=O)C7=O)CC5)CC4)cc3)c(=O)c2c1 (some centres unmarked)
### Response 10 to 30 nM

### Prompt Param item = N#Cc1c(NS(=O)(=O)N2CC[C@@H](F)C2)ccc(F)c1Oc1ccc2ncn(-c3ccc(N4CCC(CN5CC6(C5)CN(c5ccc7c(c5)C(=O)N(C5CCC(=O)NC5=O)C7=O)C6)CC4)nc3)c(=O)c2c1 (some centres unmarked) ; retrieve measured DC50.
### Response 1 to 10 nM

### Prompt So what's the measured DC50 for this one? N#Cc1c(NS(=O)(=O)N2CC[C@@H](F)C2)ccc(F)c1Oc1ccc2ncn(-c3ccc(C4CCN(CC5CCN(c6ccc7c(c6)CN([C@H]6CCC(=O)NC6=O)C7=O)CC5)C4)cc3)c(=O)c2c1 (some centres unmarked)
### Response 1 to 10 nM

### Prompt Fill blank: measured DC50 of the compound N#Cc1c(NS(=O)(=O)N2CC[C@@H](F)C2)ccc(F)c1Oc1ccc2ncn(-c3ccc(N4CCN(CCN5CCC(c6ccc7c(c6)CN(C6CCC(=O)NC6=O)C7=O)CC5)CC4)cc3)c(=O)c2c1 (some centres unmarked) is ____.
### Response 1 to 10 nM

### Prompt I am curious: what DC50 value has been reported for N#Cc1c(NS(=O)(=O)N2CC[C@@H](F)C2)ccc(F)c1Oc1ccc2ncn(-c3ccc(N4CC(CN5CCN(C6CCN(c7ccc8c(c7)CN(C7CCC(=O)NC7=O)C8=O)CC6)CC5)C4)cc3)c(=O)c2c1 (single isomer, unassigned) [Example 198] ?
### Response 1 to 10 nM

Below are 2 compounds. Give each one its DC50.
1. CCN(C)S(=O)(=O)Nc1ccc(F)c(Oc2ccc3ncn(-c4ccc(N5CCN(CC6CCN(c7ccc(C8CCC(=O)NC8=O)cc7F)CC6)CC5)cc4)c(=O)c3c2)c1C#N (centres unmarked)
2. C[C@H]1CN(CC2CCN(c3ccc4c(c3F)CN([C@@H]3CCC(=O)NC3=O)C4=O)CC2)CCN1c1ccc(-n2cnc3ccc(Oc4c(F)ccc(NS(=O)(=O)N5CC[C@@H](F)C5)c4C#N)cc3c2=O)nc1

### Response
1. > 30 nM
2. 10 to 30 nM

### Prompt If you can, please state the reported DC50 value of N#Cc1c(NS(=O)(=O)N2CC[C@@H](F)C2)ccc(F)c1Oc1ccc2ncn(-c3ccc(N4CC5(CN(CC6CCN(c7ccc8c(c7)C(=O)N(C7CCC(=O)NC7=O)C8=O)CC6)C5)C4)nc3)c(=O)c2c1 (some centres unmarked) .
### Response 1 to 10 nM
